Values from ChEMBL document CHEMBL1649064

# Test system: Plasmodium berghei
# ASSAY NOTES: Prophylactic antimalarial activity against Plasmodium berghei infected Exoerythrocytic mouse model
# Assay type: functional
MEASUREMENT LABEL: MAC

Problem: # get_value(readout='MAC', item= COc1cc(NC(C)CCCN)c2nc(C(F)(F)F)cc(C)c2c1-c1ccccc1.O=C(O)CCC(=O)O (centres undefined) )
Solution: >960 mg/kg/day

Problem: And COc1cccc(-c2c(OC)cc(NC(C)CCCN)c3nc(OC)cc(C)c23)c1.O=C(O)CCC(=O)O (centres undefined) ?
Solution: >480 mg/kg/day

Problem: And COc1cccc(-c2c(OC)cc(NC(C)CCCNC(=O)OC(C)(C)C)c3nc(C(F)(F)F)cc(C)c23)c1 (centres undefined) ?
Solution: >960 mg/kg/day

Problem: And COc1cc(C)c2c(-c3cccc(C(F)(F)F)c3)c(OC)cc(NC(C)CCCN)c2n1.O=C(O)CCC(=O)O (centres undefined) ?
Solution: >480 mg/kg/day
